System: UO-31
Experiment: NCI tumour cell line growth inhibition, 48 h
Active and inactive are the calls of the source. No stated cut-off is given here; in the data, active = GI50 up to about 1.1 µM and inactive = higher.
Pick one: TRUE (active), FALSE (inactive)

# MOLECULE, CLASS_LABEL
data = [
    ("CC(C)=C/C(CC(O)(C(F)(F)F)C(F)(F)F)=N\\O", "FALSE"),
]

Prompt: Which outcome was entered for the molecule CCOC(=O)c1[nH]c2c(OC)n[n+]([O-])cc2c1[N+](=O)[O-] in this test?
Completion: FALSE

Prompt: Then what about the molecule Cc1ccc(/C=N/NS(=O)(=O)c2ccccc2)cc1C ?
Completion: FALSE

====

Test system: SW-620
Assay: NCI tumour cell line growth inhibition, 48 h
Activity calls are given as the source filed them. No stated cut-off is given here; in the data, active = GI50 up to about 1.1 µM and inactive = higher.
Output constraint: value belongs to label 1 (active), label 0 (inactive)

# MOLECULE, CLASS_LABEL
rows = [
    ("Cc1ccc(CNc2ccc(Br)cc2)cc1", "label 0"),
    ("NC(=O)c1csc(-c2ccc(CO)o2)n1", "label 0"),
    ("Cc1ccc(S(=O)(=O)N/N=C2\\CCCCC23CCC(=O)NC3)cc1 (stereo unspecified)", "label 0"),
]

Prompt: Status in this test for COC(=O)C1=C(C)C=C(N2CCOCC2)C(C(=O)OC)C1c1ccccc1 (stereo unspecified) ?
Completion: label 0

Prompt: What would you report for Cc1ccc(/C=N/NS(=O)(=O)c2ccccc2)cc1C ?
Completion: label 0

Prompt: // repeat for COc1cc(/C=C/C2=NN(c3cccc(S(=O)(=O)O)c3)C3(C2)SCC(=O)N3c2nc3ccccc3s2)cc(OC)c1OC (stereo unspecified) and report
Completion: label 0

Prompt: Proceed to CC(=O)c1c2c(cc3c1CC1(C3)Cc3cc4c(c(C(=O)O)c3C1)CCCC4)CCCC2.CC(N)c1ccccc1 (stereo unspecified)
Completion: label 0

Prompt: // next record COc1ccc(/N=N/C(=NNC(=O)c2ccc(C)cc2)c2ccc(N(C)C)cc2)cc1
Completion: label 0
